# subject of test: EGFR L858R/C797S (Homo sapiens, UniProt P00533, C797S/L858R)
# Sequence (P00533 25-1210 C797S/L858R): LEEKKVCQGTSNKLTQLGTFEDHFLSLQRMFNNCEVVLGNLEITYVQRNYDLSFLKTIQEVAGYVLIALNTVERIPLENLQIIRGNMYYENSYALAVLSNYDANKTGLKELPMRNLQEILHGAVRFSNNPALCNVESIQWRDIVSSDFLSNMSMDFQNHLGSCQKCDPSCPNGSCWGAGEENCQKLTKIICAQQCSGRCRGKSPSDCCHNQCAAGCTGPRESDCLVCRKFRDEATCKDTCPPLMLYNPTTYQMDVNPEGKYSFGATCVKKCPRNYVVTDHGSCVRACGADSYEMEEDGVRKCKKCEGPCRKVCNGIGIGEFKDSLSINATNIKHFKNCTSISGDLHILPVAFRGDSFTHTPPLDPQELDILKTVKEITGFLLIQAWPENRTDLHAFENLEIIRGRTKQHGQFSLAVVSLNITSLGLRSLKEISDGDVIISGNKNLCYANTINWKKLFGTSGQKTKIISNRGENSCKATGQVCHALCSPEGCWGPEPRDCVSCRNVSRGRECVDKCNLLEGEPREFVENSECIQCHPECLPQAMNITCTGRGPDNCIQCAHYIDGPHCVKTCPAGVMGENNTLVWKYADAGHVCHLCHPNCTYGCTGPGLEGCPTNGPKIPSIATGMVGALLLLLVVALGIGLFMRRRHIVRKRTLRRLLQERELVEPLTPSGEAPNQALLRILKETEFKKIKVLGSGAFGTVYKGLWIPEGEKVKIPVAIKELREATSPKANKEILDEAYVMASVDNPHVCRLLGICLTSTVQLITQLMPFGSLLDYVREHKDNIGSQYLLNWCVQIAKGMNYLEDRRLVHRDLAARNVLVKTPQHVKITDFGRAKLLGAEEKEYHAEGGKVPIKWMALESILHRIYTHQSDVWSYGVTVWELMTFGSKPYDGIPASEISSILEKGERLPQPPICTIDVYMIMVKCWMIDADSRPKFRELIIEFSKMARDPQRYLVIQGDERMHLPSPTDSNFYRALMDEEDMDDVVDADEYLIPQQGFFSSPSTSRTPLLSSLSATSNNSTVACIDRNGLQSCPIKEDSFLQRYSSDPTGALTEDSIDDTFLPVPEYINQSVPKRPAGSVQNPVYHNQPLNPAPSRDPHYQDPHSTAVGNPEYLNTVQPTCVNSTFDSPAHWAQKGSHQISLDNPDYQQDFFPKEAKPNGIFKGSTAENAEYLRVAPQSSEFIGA
# experiment notes: Biochemical EGFR kinase assay (Lance Ultra TR-FRET), double mutant L858R/C797S
# test context: read-out: IC50 L858R/C797S, 100 μM ATP
assay readout: IC50 (µM)
Give bare numbers, in µM.

Please give the measured IC50 for this compound: CC(C)(O)[C@H]1CC[C@@H](Nc2cc(Nc3ccnc(-c4cnn(S(=O)(=O)C5CC5)c4)n3)ncc2-c2ccc(N3CC(F)(F)C3)cn2)CC1 [Example 225]
0.799

----------
# subject of test: EGFR L858R/C797S (Homo sapiens, UniProt P00533, C797S/L858R)
# experiment notes: Biochemical EGFR kinase assay (Lance Ultra TR-FRET), double mutant L858R/C797S
# test context: ATP at Km; read-out: IC50 L858R/C797S, Km ATP
# Description: Biochemical EGFR kinase assays were conducted using Lance Ultra time-resolved fluorescence resonance energy transfer (TR-FRET) technology from Perkin-Elmer. […] Each kinase reactions were incubated at room temperature for 1 hour and then stopped by the addition of 4 μL of stop solution (10 mM EDTA). […] After 60 minutes incubation at room temperature the LANCE signal was measured on an EnVision Multilabel Reader (Perkin-Elmer). […]
assay readout: pIC50
Numbers only, as −log10 of the molar value.

Sample records with pIC50:
>>> df
                                   compound  reading
0  CN1CC(Oc2ccc(-c3cnc(Nc4ccnc(-c5cnn(S(=O)(=O)C6CC6)c5)n4)cc3N[C@H]3CC[C@@](C)(O)CC3)nc2)C1 [Example 289]    10.00
1  C[C@]1(O)CC[C@@H](Nc2cc(Nc3ccnc(-c4cnn(S(=O)(=O)C5CC5)c4)n3)ncc2-c2cnc(OC3CCN(CCF)CC3)cn2)CC1 [Example 153]     9.70
2  O=S(=O)(C1CC1)n1cc(-c2nccc(Nc3cc(NC4CCC(F)(CO)CC4)c(-c4cccc(F)n4)cn3)n2)cn1 (stereo not drawn) [Example 162]     7.70

# batch size: 2; output pIC50 per entry
1. CC1(O)CCC(Nc2cc(Nc3ccnc(-c4cnn(S(=O)(=O)C5CC5)c4)n3)ncc2-c2cc(S(C)(=O)=O)ccn2)CC1 (stereo not drawn) [Example 198]
2. COC(c1ccc(-c2cnc(Nc3ccnc(-c4cnn(S(=O)(=O)C5CC5)c4)n3)cc2NC2CCC(CO)CC2)nc1)C(F)(F)F (stereo not drawn) [Example 261]

1: 9.10; 2: 8.12

Requested read-out pIC50, target or system EGFR L858R/C797S (Homo sapiens, UniProt P00533, C797S/L858R), entry CN(C)C[C@H]1CC[C@@H](Nc2cc(Nc3ccnc(-c4cnn(S(=O)(=O)C5CC5)c4)n3)ncc2-c2ccc(CC(F)(F)F)cn2)CC1 [Example 221]
9.00

----------
Kindly state IC50 for each of the entries shown.
# subject of test: EGFR del19/T790M/C797S (Homo sapiens, UniProt P00533, C797S/DEL746-750/T790M)
# Sequence (P00533 with tags, fused parts or gaps DEL746-750/T790M/C797S): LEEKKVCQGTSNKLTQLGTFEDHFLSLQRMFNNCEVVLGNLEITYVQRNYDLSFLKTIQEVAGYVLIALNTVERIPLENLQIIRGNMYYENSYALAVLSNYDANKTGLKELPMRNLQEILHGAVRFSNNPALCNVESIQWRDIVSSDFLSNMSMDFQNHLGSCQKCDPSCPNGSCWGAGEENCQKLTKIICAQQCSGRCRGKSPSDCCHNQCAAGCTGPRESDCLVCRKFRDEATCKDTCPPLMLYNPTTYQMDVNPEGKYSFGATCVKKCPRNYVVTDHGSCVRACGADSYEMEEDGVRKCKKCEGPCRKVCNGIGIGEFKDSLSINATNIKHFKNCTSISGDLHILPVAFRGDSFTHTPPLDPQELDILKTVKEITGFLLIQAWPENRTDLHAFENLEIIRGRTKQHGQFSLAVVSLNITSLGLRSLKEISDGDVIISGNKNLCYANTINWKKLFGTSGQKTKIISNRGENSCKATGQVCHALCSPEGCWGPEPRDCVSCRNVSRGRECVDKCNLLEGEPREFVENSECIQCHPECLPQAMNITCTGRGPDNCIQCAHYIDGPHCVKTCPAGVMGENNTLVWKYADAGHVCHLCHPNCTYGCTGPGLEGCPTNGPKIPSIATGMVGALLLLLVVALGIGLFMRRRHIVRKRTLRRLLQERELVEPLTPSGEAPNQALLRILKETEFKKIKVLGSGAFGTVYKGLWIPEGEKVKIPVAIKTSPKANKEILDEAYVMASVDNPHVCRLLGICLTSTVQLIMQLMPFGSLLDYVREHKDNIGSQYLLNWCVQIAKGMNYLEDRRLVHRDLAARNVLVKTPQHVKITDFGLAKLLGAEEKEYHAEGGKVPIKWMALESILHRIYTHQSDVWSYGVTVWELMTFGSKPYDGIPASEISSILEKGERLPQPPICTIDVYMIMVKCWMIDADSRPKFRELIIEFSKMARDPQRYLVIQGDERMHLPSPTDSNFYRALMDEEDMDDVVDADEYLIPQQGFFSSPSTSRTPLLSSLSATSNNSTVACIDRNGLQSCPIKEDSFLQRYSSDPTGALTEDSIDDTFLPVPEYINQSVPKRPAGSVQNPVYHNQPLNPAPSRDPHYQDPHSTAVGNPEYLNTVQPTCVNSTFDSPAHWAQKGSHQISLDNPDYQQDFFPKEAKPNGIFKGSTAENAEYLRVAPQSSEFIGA
# experiment notes: Biochemical EGFR kinase assay (Lance Ultra TR-FRET), triple mutant del19/T790M/C797S
# test context: IC50 del19/T790M/C797S (nM) 100 μM ATP, 100 μM ATP
Numbers only, in nM.

>>> print(df.to_string())
                                   compound  reading
0  C[C@]1(O)CC[C@@H](Nc2cc(Nc3ccnc(-c4cnn(S(=O)(=O)C5CC5)c4)n3)ncc2-c2ccccn2)CC1      0.3
1  CN1CCN(c2ccc(-c3cnc(Nc4ccnc(-c5cnn(S(=O)(=O)C6CC6)c5)n4)cc3N[C@H]3CC[C@@H](CO)CC3)nc2)CC1      0.4
2  CC(C)(O)c1cc(-c2cnc(Nc3ccnc(-c4cnn(S(=O)(=O)C5CC5)c4)n3)cc2N[C@H]2CC[C@@H](C(C)(C)O)CC2)ncc1F      8.6
3  CC(C)(O)[C@H]1CC[C@@H](Nc2cc(Nc3ccnc(-c4cnn(S(=O)(=O)C5CC5)c4)n3)ncc2-c2cc(C(F)F)ccn2)CC1      5.5
4  CC(=O)c1cccc(-c2cnc(Nc3ccnc(-c4cnn(S(=O)(=O)C5CC5)c4)n3)cc2N[C@H]2CC[C@@](C)(O)CC2)n1      0.7

# batch size: 7; output IC50 per entry
1. CN(C)Cc1ccc(-c2cnc(Nc3ccnc(-c4cnn(S(=O)(=O)C5CC5)c4)n3)cc2N[C@H]2CC[C@@](C)(O)CC2)nc1
2. CN1CCN(Cc2ccc(-c3cnc(Nc4ccnc(-c5cnn(S(=O)(=O)C6CC6)c5)n4)cc3N[C@H]3CC[C@](O)(CO)CC3)nc2)CC1
3. CC(C)(O)c1ccnc(-c2cnc(Nc3ccnc(-c4cnn(S(=O)(=O)C5CC5)c4)n3)cc2N[C@H]2CC[C@@H](CO)CC2)c1
4. C[C@]1(O)CC[C@@H](Nc2cc(Nc3ccnc(-c4cnn(S(=O)(=O)C5CC5)c4)n3)ncc2-c2cnc(N3CCOCC3)cn2)CC1
5. C[C@]1(O)CC[C@@H](Nc2cc(Nc3ccnc(-c4cnn(S(=O)(=O)C5CC5)c4)n3)ncc2-c2ccc(F)cn2)CC1
6. C[C@]1(O)CC[C@@H](Nc2cc(Nc3ccnc(-c4cnn(S(=O)(=O)C5CC5)c4)n3)ncc2-c2ccc(C#N)cn2)CC1
7. CC(C)(O)c1cc(-c2cnc(Nc3ccnc(-c4cnn(S(=O)(=O)C5CC5)c4)n3)cc2N[C@H]2CC[C@@](C)(O)CC2)ncc1F

1. 0.2
2. 0.1
3. 0.5
4. 0.6
5. 0.1
6. 0.2
7. 1.8

# batch size: 7; output IC50 per entry
1. CN(C)C[C@H]1CC[C@@H](Nc2cc(Nc3ccnc(-c4cnn(S(=O)(=O)C5CC5)c4)n3)ncc2-c2cc(C(C)(C)O)ccn2)CC1
2. O=S(=O)(C1CC1)n1cc(-c2nccc(Nc3cc(N[C@H]4CC[C@@H](NCCF)CC4)c(-c4ccc(CO)cn4)cn3)n2)cn1
3. CC(C)(O)[C@H]1CC[C@@H](Nc2cc(Nc3ccnc(-c4cnn(S(=O)(=O)C5CC5)c4)n3)ncc2-c2ccc(CN3CCC(O)CC3)cn2)CC1
4. C[C@]1(O)CC[C@@H](Nc2cc(Nc3ccnc(-c4cnn(S(=O)(=O)C5CC5)c4)n3)ncc2-c2ccc(N3CC4(COC4)C3)nn2)CC1
5. C[C@]1(O)CC[C@@H](Nc2cc(Nc3ccnc(-c4cnn(S(=O)(=O)C5CC5)c4)n3)ncc2-c2cnc(CO)cn2)CC1
6. C[C@]1(O)CC[C@@H](Nc2cc(Nc3ccnc(-c4cnn(S(=O)(=O)C5CC5)c4)n3)ncc2-c2ccc(CN3CCOCC3)cn2)CC1
7. COC1CN(c2ccc(-c3cnc(Nc4ccnc(-c5cnn(S(=O)(=O)C6CC6)c5)n4)cc3N[C@H]3CC[C@@H](CO)CC3)nc2)C1

[0.2, 0.3, 0.5, 0.3, 0.2, 0.4, 1.3]

# batch size: 2; output IC50 per entry
1. CC(C)(O)[C@H]1CC[C@@H](Nc2cc(Nc3ccnc(-c4cnn(S(=O)(=O)C5CC5)c4)n3)ncc2-c2cnc(N3CCC(F)(F)CC3)cn2)CC1
2. CN(C)CCOc1cnc(-c2cnc(Nc3ccnc(-c4cnn(S(=O)(=O)C5CC5)c4)n3)cc2NC2CCC(C)(O)CC2)cn1 (stereo not drawn)

[12.7, 0.4]

----------
# subject of test: EGFR del19/T790M/C797S (Homo sapiens, UniProt P00533, C797S/DEL746-750/T790M)
# experiment notes: Biochemical EGFR kinase assay (Lance Ultra TR-FRET), triple mutant del19/T790M/C797S
# test context: IC50 del19/T790M/C797S (nM) 100 μM ATP, 100 μM ATP
Kindly state log10 of IC50 for each of the entries shown.
Field: value | Transform: log10 | Quantity: IC50 | Unit: nM

Sample records with log10 of IC50:
>>> print(df.to_string())
                                   compound  reading
0  COC1CN(c2ccc(-c3cnc(Nc4ccnc(-c5cnn(S(=O)(=O)C6CC6)c5)n4)cc3N[C@H]3CC[C@@H](C(C)(C)O)CC3)nc2)C1 [Example 92]     0.20
1  CN(C)CCOc1cnc(-c2cnc(Nc3ccnc(-c4cnn(S(=O)(=O)C5CC5)c4)n3)cc2N[C@H]2CC[C@@H](CO)CC2)cn1 [Example 116]    -1.00
2  C[C@]1(O)CC[C@@H](Nc2cc(Nc3ccnc(-c4cnn(S(=O)(=O)C5CC5)c4)n3)ncc2-c2ccc(N3CCOCC3)nn2)CC1 [Example 43]     0.40
3  C[C@]1(O)CC[C@@H](Nc2cc(Nc3ccnc(-c4cnn(S(=O)(=O)C5CC5)c4)n3)ncc2-c2ccc(N3CCCCC3)cn2)CC1 [Example 54]     1.06
4  CN1CCN(Cc2cccc(-c3cnc(Nc4ccnc(-c5cnn(S(=O)(=O)C6CC6)c5)n4)cc3N[C@H]3CC[C@@](C)(O)CC3)n2)CC1 [Example 28]    -1.00

Please give the measured log10 of IC50 for this compound: CC(C)(O)c1ccnc(-c2cnc(Nc3ccnc(-c4cnn(S(=O)(=O)C5CC5)c4)n3)cc2N[C@H]2CC[C@@](C)(O)CC2)c1 [Example 108]
-0.40
